Origin of the recorded values: ChEMBL document CHEMBL1122366

# Tested on: Rattus norvegicus
# Method summary: In vivo sterol lowering activity at dose of 0.10 % of the diet
# Format: functional
Measurement kind: serum sterol level, percent of control (%)

In [3]: df
Out[3]:
                                    compound  censor_symbol  value_observed
 0     CCCCCCCCCCCCCCCCNc1ccc(C(=O)OC)c(C)c1              =              99
 1     Br.CCCCCCCCCCCCCCCCNc1ccc(OC(C)=O)cc1              =              91
 2      CCCCCCCCCCCCCCCCNc1ccc(C2=NCCCO2)cc1              <              87
 3  CCCCCCCCCCCCCCCCN(C(=O)C(F)(F)F)c1ccc(C(=O)C(C(=O)OCC)C(=O)OC(C)(C)C)cc1 (stereo not drawn)              =              90
 4  CCCCCCCCCCCCCCCCNc1ccc(C(=O)OC2COC(c3ccccc3)OC2)cc1 (stereo not drawn)              =              99
 5  CCCCCCCCCCCCCCCCNc1ccc(C(=O)SCC(O)CO)cc1 (stereo not drawn)              <              82
 6  CCCCCCCCCCCCCCCCNc1ccc(C(=O)OC2CCCCCC2)cc1              <              87
 7  CCCCCCCCCCCCCCCCNc1ccc(C(=O)OCCN(C)C)cc1.Cl              =              92
 8    CCCCCCCCCCCCCCCCN(C)c1ccc(C(=O)OCC)cc1              <              74
 9  CCCCCCCCCCCCCCCCNc1ccc(C(=O)OCC(O)COC)cc1 (stereo not drawn)              <              77
10  CCCCCCCCCCCCCCCCNc1ccc(C(=O)Oc2ccc(C(=O)O)cc2)cc1              =              93
11     CCCCCCCCCCCCCCCCNc1ccc(C(=O)OCCCO)cc1              <              68
12  CCCCCCCCCCCCCCCCNc1ccc(C(=O)O)cc1 [CETABEN]              <              54
13        CCCCCCCCCCCCCCCCNc1ccc(C(=O)NN)cc1              =             116
14       CCCCCCCCCCCCCCCCNc1ccc(CCC(=O)O)cc1              =              92
15  CCCCCCCCCCCCCCCCNc1ccc(C(=O)N2CCCCCC2)cc1              =             106
16       CCCCCCCCCCCCCCCCNc1ccc(C2SCCCS2)cc1              =              93
17        CCCCCCCCCCCCCCCCNc1ccc(C(=O)CO)cc1              <              85
18     CCCCCCCCCCCCCCCCNc1ccc(C(=O)O)c(OC)c1              =              98
19        CCCCCCCCCCCCCCCCNc1ccc(C(=O)O)cc1F              <              79
20       CCCCCCCCCCCCCCCCNc1ccc(C2=NCCO2)cc1              =              86
21  CCCCCCCCCCCCCCCCNc1ccc(C(=O)NC(C)(C)C(=O)O)cc1              =              88
22  CCCCCCCCCCCCCCCCN(C(C)=O)c1ccc(C(=O)O)cc1              =             103
